METHOD_DESCRIPTION: folding enthalpy; higher = less favourable; fluorescence melt of hairpins on a sequencing array, two-state fit
CONDITION_NOTES: sodium 0.088 M
Respond with class 1 for folding enthalpy values of -40 kcal/mol and above, class 0 for values below.

> print(dat)
                         ordered.residues    label
 1  GGAGCAGGAAACTGCCCC ((.((((....)))).))  class 1
 2  GCGTAGGGAAACCCACGC ((((.((....)).))))  class 1
 3      GATCTCAGGCGAGATC ((((((....))))))  class 1
 4  GCATATCGAAAGATGTGC (((.(((....))).)))  class 1
 5  GGGCTCCGAAAGGAACCC (((.(((....))).)))  class 0
 6  GGCTTGGGAAACCAAACC ((.((((....)))).))  class 1
 7  GGGTGCGGAAACGTACCC ((((.((....)).))))  class 0
 8  GCCTTGCGAAAGCACGGC (((.(((....))).)))  class 0
 9  GGTCCGCGAAAGCGTACC (((.(((....))).)))  class 1
10  GATACCGAAAGGTAAATC ((((((....)))..)))  class 1
11  GTAGTAGCGAAAGCTTAC (((..(((....))))))  class 1
12        GATCTCAAGGAGATC ((((((...))))))  class 1
13  GAGACCGAAAGGTGCCTC ((((((....)))..)))  class 1
14  GGTTTCGGAAACGAAATC (.(((((....))))).)  class 1
15          TCGAGGAAACTCGA (((((....)))))  class 1
16  GAGCGTGGAAACACGCCC (.(((((....))))).)  class 1
17  GGATTGGGAAACCAATCC (((((((....)))))))  class 0
18        GATCTTAGAAAGATC ((((((...))))))  class 1

Origin of values: the array DNA melting data of Ke et al. (doi:10.1101/2024.01.08.574731)
